Tested on: CDK3
Conditions: concentration: 1 μM, replicates: in singlicate; n = 1;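 note: KINOMEscan kinase panel screen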
metric: %Inh (%)
Give bare numbers, in %.

Return reported %Inh values for all items listed beneath this line.
1. COc1ccc(Nc2nccc(NCCNC(=O)c3cc4ccccc4s3)n2)cc1
2. O=C(Nc1cccc(-c2nn3ncccc3c2-c2ccnc(Nc3ccccc3)n2)c1)c1c(F)cccc1F

1. 5
2. 8

====

System: TRKC
Construct: gene NTRK3
Conditions: concentration: 1 μM, replicates: in singlicate; n = 1
Lab note: anything with %Inh at or over 60% counts as t; the rest go in f.

[[record]]
molecule = "COc1cc(Nc2nccc(N3CCC(NC(=O)c4cc5ccccc5s4)C3)n2)cc(OC)c1OC (stereo not drawn)"
class_name = "f"

[[record]]
molecule = "COc1cccc(NC(=O)NC2CCN(c3ccnc(Nc4cc(OC)c(OC)c(OC)c4)n3)C2)c1 (stereo not drawn)"
class_name = "t"

[[record]]
molecule = "COc1ccc(Nc2nccc(NCCNC(=O)c3cc4ccccc4s3)n2)cc1"
class_name = "f"

[[record]]
molecule = "O=C(Nc1ccccc1F)NC1CCN(c2ccnc(Nc3ccc(F)cc3)n2)CC1"
class_name = "f"

[[record]]
molecule = "Cc1cccc(NC(=O)Nc2ccc(Oc3ncnc4ccn(C)c34)cc2)c1"
class_name = "f"


Hello, I need to know if COC(=O)Nc1nc2cc(Oc3ccc(NC(=O)Nc4cc(C(F)(F)F)ccc4F)cn3)ccc2[nH]1.Cl.Cl has measured %Inh not below 60%. Thanks!
t
